Entries and their measured Plasma level of non-ester (compound [II]), 1.0 hr follow.
# Particulars: mouse, in vivo, po, 100 mg/kg, 60 min
Counter-ions that a name gives are not always drawn.
Answer in ng/mL, number only, no unit symbol.

A selection of reference data follows.
{"columns": ["Compound", "Numeric Readout"],
 "data": [
  ["CCC(OC(=O)C1=C(CSc2nnnn2CCN(C)C)CS[C@@H]2[C@H](NC(=O)Cc3csc(N)n3)C(=O)N12)OC(=O)C1CCCCC1.Cl.Cl (some centres unmarked)", 11700],
  ["CC(C)C(OC(=O)CC1CCCCC1)OC(=O)C1=C(CSc2nnnn2CCN(C)C)CS[C@@H]2[C@H](NC(=O)Cc3csc(N)n3)C(=O)N12.Cl.Cl (some centres unmarked)", 11100],
  ["CC(C)C(OC(=O)C1=C(CSc2nnnn2CCN(C)C)CS[C@@H]2[C@H](NC(=O)Cc3csc(N)n3)C(=O)N12)OC(=O)C1CCCCC1.Cl.Cl (some centres unmarked)", 8900],
  ["CN(C)CCn1nnnc1SCC1=C(C(=O)OC(OC(=O)C2CCCCC2)C2CCCCC2)N2C(=O)[C@@H](NC(=O)Cc3csc(N)n3)[C@H]2SC1.Cl.Cl (some centres unmarked)", 21200],
  ["CCCCC(=O)OC(OC(=O)C1=C(CSc2nnnn2CCN(C)C)CS[C@@H]2[C@H](NC(=O)Cc3csc(N)n3)C(=O)N12)C1CCCCC1.Cl.Cl (some centres unmarked)", 17000]
]}

Prompt line: Recorded Plasma level of non-ester (compound [II]), 1.0 hr of CN(C)CCn1nnnc1SCC1=C(C(=O)OCOC(=O)C(C)(C)C)N2C(=O)[C@@H](NC(=O)Cc3csc(N)n3)[C@H]2SC1 [compound A, reference compound] , please.
Response line: 6100

Prompt line: Recorded Plasma level of non-ester (compound [II]), 1.0 hr of CCCC(=O)OC(OC(=O)C1=C(CSc2nnnn2CCN(C)C)CS[C@@H]2[C@H](NC(=O)Cc3csc(N)n3)C(=O)N12)C1CCCCC1 (some centres unmarked) [Compound No. 8, dihydrochloride] , please.
Response line: 15600

Prompt line: Recorded Plasma level of non-ester (compound [II]), 1.0 hr of CCCC(OC(=O)C1=C(CSc2nnnn2CCN(C)C)CS[C@@H]2[C@H](NC(=O)Cc3csc(N)n3)C(=O)N12)OC(=O)C1CCCCC1.Cl.Cl (some centres unmarked) , please.
Response line: 14400
